Quick list: growth inhibition per entry.
assay_text: NCI Yeast Anticancer Drug Screen. Data for the rad50 strain (AID 155);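 further: 0% = growth of vehicle-only cultures of the same strain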
condition_description: S. cerevisiae rad50 strain growth inhibition; at 5.0 µM (retest, dose inferred, filed as 0.5); hits give high values
Compounds without any hit were thinned out: in the full panel of roughly 79,000, 15% have a hit.
// units = %; emit number, no label

- compound: "C/C(=N\\OC(=O)c1ccccc1)[N+](=O)[O-]"
  assay_result: -50
- compound: "CC1(C)OC2C(COC(c3ccccc3)(c3ccccc3)c3ccccc3)OC(n3cnc4c(=O)[nH]cnc43)C2O1 (stereo not drawn)"
  assay_result: 43
- compound: "CC(NNC(=S)NCc1ccccc1)c1cc2ccccc2cn1 (stereo not drawn)"
  assay_result: 12
- compound: "CCOC(=O)OC(=S)N(C1CCCCC1)C1CCCCC1"
  assay_result: 4
- compound: "O=C1CNCCCN2CCN(CCCNCC(=O)Nc3ccc(cc3)S(=O)(=O)c3ccc(cc3)NC(=O)CNCCCN3CCN(CCCNCC(=O)Nc4ccc(cc4)S(=O)(=O)c4ccc(cc4)N1)CC3)CC2"
  assay_result: 1
- compound: "Cc1ccc(S(=O)(=O)NCCSSCCNS(=O)(=O)c2ccc(C)cc2)cc1"
  assay_result: -4
- compound: "CCN1C2=NC(=O)N(C)C(=O)C2(Cl)C(C(SC)S(=O)(=O)c2ccc(C)cc2)c2ccccc21 (stereo not drawn)"
  assay_result: 22
- compound: "N#C/C(=C/c1ccccc1B(O)O)C(=O)O"
  assay_result: -151
- compound: "S=C(Nc1ccc(N=Nc2ccccc2)cc1)SCc1ccccc1"
  assay_result: 1
- compound: "CC(Cc1ccccc1)NNC(C)Cc1ccccc1 (stereo not drawn)"
  assay_result: 10

With those in mind, consider the next compound.
### Prompt Need growth inhibition of c1ccc(B2OC(c3ccccc3)C(c3ccccc3)O2)cc1 (stereo not drawn) , thanks.
### Response -19

---

Form field: growth inhibition (one value per entry).
assay_text: NCI Yeast Anticancer Drug Screen. Data for the mec2-1 strain (AID 157)
condition_description: S. cerevisiae mec2-1 strain, at 50.0 µM (retest, dose inferred, filed as 5.0), hits give high values
About 79,000 compounds went through this panel and 15% of them were active in at least one assay; those are over-represented in the sample as a whole.
Return type: number; implicit unit %.

### Prompt Param item = O=C(C[n+]1ccc2ccccc2c1)c1ccc2ccc3ccccc3c2c1 ; retrieve measured growth inhibition.
### Response 73

### Prompt Returns the measured growth inhibition for the input compound. Input: CCCCCCCN=C(N)c1ccc(C(=O)OC2CCCCC2)cc1
### Response 89

### Prompt // query growth inhibition value for entry CC(=O)OCC1OC(c2cccc3c2c2ccccc2n3S(=O)(=O)c2ccccc2)C(O)C1O (stereo unspecified)
### Response 97

### Prompt Name the recorded growth inhibition for C/C(CC(O)(C(F)(F)F)C(F)(F)F)=N/Nc1ccc([N+](=O)[O-])cc1[N+](=O)[O-] .
### Response 99

### Prompt Could you tell me which growth inhibition is on file for C=CCOCC(C)OC(=O)C(C)C (stereo unspecified) ?
### Response -52

### Prompt Bench note: what growth inhibition did O=S(=O)(CC(Br)CCl)c1ccccc1 (stereo unspecified) show?
### Response 55

### Prompt Give the measured growth inhibition of Cc1cc(S(=O)(=O)c2ccc(Cl)cc2)nc(S(=O)(=O)c2ccc(Cl)cc2)c1C#N .
### Response 91

### Prompt Entry CN(C)C(=S)/N=c1\ssc(=S)n1C has what growth inhibition?
### Response 4

### Prompt # growth inhibition lookup, item O=C1CSC(=S)N1c1cccc(Cl)c1
### Response 23

### Prompt Form field: reported growth inhibition of CC1=C/C(=C\c2ccc([N+](=O)[O-])o2)C(=O)O1
### Response 99

### Prompt Given the compound COc1ccc(C2SC(N)=Nc3c2c(C)nn3C(=O)c2ccccc2O)cc1OC (stereo unspecified) , what is its reported growth inhibition?
### Response 81
